target: human Y4 receptor (Homo sapiens, UniProt P50391); construct: expressed in transfected cells; test: Radioligand binding to cloned human Y4 receptor (125I-PYY); conditions: cloned human Y4, stably transfected cells, read-out: Binding Affinity (K1 (nM) vs. 125I-PYY) Human Receptor Y4
Sequence (P50391 whole entry): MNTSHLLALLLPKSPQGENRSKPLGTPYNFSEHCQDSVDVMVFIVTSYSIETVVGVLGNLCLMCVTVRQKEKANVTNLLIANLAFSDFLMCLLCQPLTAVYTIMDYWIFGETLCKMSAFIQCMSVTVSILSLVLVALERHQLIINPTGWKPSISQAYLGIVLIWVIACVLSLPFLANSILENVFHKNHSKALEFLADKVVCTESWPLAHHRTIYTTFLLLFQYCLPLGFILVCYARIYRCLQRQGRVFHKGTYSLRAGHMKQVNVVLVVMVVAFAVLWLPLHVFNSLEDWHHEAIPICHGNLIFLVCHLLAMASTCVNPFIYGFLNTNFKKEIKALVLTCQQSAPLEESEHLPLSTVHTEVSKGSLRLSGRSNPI
READOUT_KIND: Ki (nM)

[
  {
    "COMPOUND": "Cl.Cl.O=[N+]([O-])c1ccccc1S(=O)(=O)NCC1CCC(CNCc2ccc3ccccc3n2)CC1 (stereo not drawn) [Example 44]",
    "READOUT_KIND": "Ki",
    "VAL": 19300
  }
]

a. Cl.O=S(=O)(NCC1CCC(CNCc2cccc3ccccc23)CC1)c1ccccc1C(F)(F)F (stereo not drawn) [Example 37]
b. O=S(=O)(NC[C@H]1CC[C@H](CNC(CO)Cc2ccc(Cl)cc2)CC1)c1cccc2ccccc12 (relative stereo) [Example 77]
Prompt: When the recorded Ki values are compared, which is smaller: that of a or that of b ? Reply briefly: the label of your chosen item.
Response: b
(b: 13100 nM, a: 21500 nM)

====

Molecular target: human Y5 receptor (Homo sapiens, UniProt Q15761)
Construct: expressed in transfected cells
Sequence (Q15761 1-445): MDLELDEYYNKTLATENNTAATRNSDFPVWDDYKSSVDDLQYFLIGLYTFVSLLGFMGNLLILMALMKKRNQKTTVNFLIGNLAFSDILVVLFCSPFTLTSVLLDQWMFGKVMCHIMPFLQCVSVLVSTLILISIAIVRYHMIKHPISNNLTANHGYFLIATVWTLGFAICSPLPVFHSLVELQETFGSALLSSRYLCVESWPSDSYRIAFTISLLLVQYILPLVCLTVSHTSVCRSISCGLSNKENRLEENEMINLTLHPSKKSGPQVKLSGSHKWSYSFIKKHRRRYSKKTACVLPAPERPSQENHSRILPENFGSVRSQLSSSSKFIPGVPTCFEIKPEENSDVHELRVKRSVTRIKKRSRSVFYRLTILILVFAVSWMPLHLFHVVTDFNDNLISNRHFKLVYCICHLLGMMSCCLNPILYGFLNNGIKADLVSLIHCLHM
Assay: Radioligand binding to cloned human Y5 receptor (125I-PYY)
Conditions: cloned human Y5, stably transfected cells, read-out: Binding Affinity (K1 (nM) vs. 125I-PYY) Human Receptor Y5
READOUT_KIND: Ki (nM)

[
  {
    "COMPOUND": "Cl.Cl.O=[N+]([O-])c1ccccc1S(=O)(=O)NCC1CCC(CNCc2ccnc3ccccc23)CC1 (centres unmarked)",
    "U": "nM",
    "Ki": 28
  },
  {
    "COMPOUND": "Cl.O=S(=O)(NCC1CCC(CNCC2CCc3ccccc3C2)CC1)c1cccc2ccccc12 (centres unmarked)",
    "U": "nM",
    "Ki": 11
  },
  {
    "COMPOUND": "Cl.O=[N+]([O-])c1ccccc1S(=O)(=O)NCC1CCC(CNCC2CCc3ccccc3C2)CC1 (centres unmarked)",
    "U": "nM",
    "Ki": 8.3
  }
]

A. Cl.O=S(=O)(NCC1CCC(CNCc2ccc3ccccc3c2)CC1)c1ccccc1C(F)(F)F (centres unmarked)
B. Cl.O=S(=O)(NCC1CCC(CNCc2cccc3ccccc23)CC1)c1ccccc1C(F)(F)F (centres unmarked)
Prompt: For the two items A and B , which reports the higher Ki value? Please respond with the label that marks your chosen entry.
Response: B
